conditions: human, in vivo, iv
property name: t1/2 (h)
Just the number in h, nothing appended.

Before answering, review these 2 worked examples.
{"columns": ["molecule", "units symbol", "t1/2"],
 "data": [
  ["COc1cc2c(cc1OC)[C@@H](Cc1cc(OC)c(OC)c(OC)c1)[N+](C)(CCCOC(=O)CC/C=C/CCC(=O)OCCC[N+]1(C)CCc3cc(OC)c(OC)cc3[C@H]1Cc1cc(OC)c(OC)c(OC)c1)CC2 (some centres undefined)", "h", 0.83],
  ["CCN(CC)CCCC(C)Nc1ccnc2cc(Cl)ccc12 (centres undefined) [CHLOROQUINE]", "h", 570]
]}

Identify measured t1/2 corresponding to O=P1(N(CCCl)CCCl)NCCCO1 (centres undefined) [CYCLOPHOSPHAMIDE ANHYDROUS]
8

Identify measured t1/2 corresponding to COC(=O)CCc1ccc(OCC(O)CNC(C)C)cc1 (centres undefined) [ESMOLOL]
0.15
